Each recorded value in this set is attributed to paper doi:10.1101/2025.10.10.681657.

Target: U4/U6 snRNA construct (92 nt)
Test: SPR binding to U4/U6 snRNA construct (92 nt)
Details: 92 nt RNA, steady-state fit; >100 = signal appeared at 100 μM but failed to fit
property: pKd
Just so you know, pKd here is -log10 of the concentration in molar units; reply with that number alone.

Consider the compound shown here: CN(C)CCNc1nnc(-c2nc(-c3ccc(F)cc3)no2)c2ccccc12 [Compound 22] What is its recorded pKd?
5.41

Continue with CCc1nnc(-c2nnc(NCCCN3CCN(C)CC3)c3ccccc23)o1 [Compound 10]
4.29

====

Molecular target: U4/U6 92-nt RNA construct
Assay: MST binding to U4/U6 92-nt RNA
Design: species or system yeast
Details: 50 nM Cy5-labeled 92-nt RNA
property: Kd (µM)
The answer is to be given in µM; state only the numeric part.

// Kd lookup, key: CN(C)CCNc1nnc(-c2nc(-c3ccc(F)cc3)no2)c2ccccc12 [Compound 22]
9.1

====

Target: U4/U6 snRNA construct (92 nt)
Test: SPR binding to U4/U6 snRNA construct (92 nt)
Settings: 92 nt RNA, steady-state fit; >100 = signal appeared at 100 μM but failed to fit
property: Kd

Form field: reported Kd of Cc1ccc(-n2ncc3c(NCCCN(C)C)ncnc32)cc1Cl
50.3 µM

Now try c1cncc(CNc2nnc(-c3nc(C4CC4)no3)c3ccccc23)c1 .
> 100 µM

Request: CN(C)CCCNc1nnc(-c2nc(-c3ccc(F)cc3)no2)c2ccccc12
11.9 µM

Entry CCCCNc1nnc(-c2nnc(CC)o2)c2ccccc12 please
> 100 µM

Let us now turn to Fc1ccc(-c2noc(-c3nnc(NCc4cccnc4)c4ccccc34)n2)cc1
> 100 µM

Now the compound CN(C)CCNc1nnc(-c2nc(C3CC3)no2)c2ccccc12
32.8 µM

Record: CCCCNc1nnc(-c2nc(C3CC3)no2)c2ccccc12
> 100 µM

# iterate: CN1CCN(CCCNc2nnc(-c3nc(C4CC4)no3)c3ccccc23)CC1
23 µM

Now consider CCc1nnc(-c2nnc(NCCCN3CCOCC3)c3ccccc23)o1 and answer again.
61.3 µM

Consider next the compound CCc1nnc(-c2nnc(NCCCOC)c3ccccc23)o1 in the same way.
> 100 µM

Also CCN(CC)CCNc1nnc(-c2nnc(C3CC3)o2)c2ccccc12 ?
24.2 µM

Please give the result for CCN(CC)CCNc1nnc(-c2nc(C3CC3)no2)c2ccccc12 too.
23.4 µM

Moving on to the next compound: CCc1nnc(-c2nnc(NCCCN(C)C)c3ccccc23)o1
30.5 µM

Consider next the compound c1ccc2c(-c3nc(C4CC4)no3)nnc(NCCCN3CCOCC3)c2c1 in the same way.
42.1 µM

Quick one: CN1CCN(CCNc2nnc(-c3nc(-c4ccc(F)cc4)no3)c3ccccc23)CC1
13.9 µM

// next record CCc1nnc(-c2nnc(NCCOC)c3ccccc23)o1
> 100 µM

Query c1ccc2c(-c3nc(C4CC4)no3)nnc(NCCN3CCOCC3)c2c1 next
34.5 µM

Similarly, CCc1nnc(-c2nnc(NCCN(C)C)c3ccccc23)o1 ?
29.2 µM

Also COCCNc1nnc(-c2nnc(C3CC3)o2)c2ccccc12 ?
> 100 µM

Here is the next compound: COCCNc1nnc(-c2nc(C3CC3)no2)c2ccccc12
> 100 µM

====

Task for the reader: assign each of the following compounds its reported KD.
Test system: U4/U6 snRNA construct 92 nt (WT, No. 1) (RNA, junction) GGCCUUAUGCACGGGAAAUACGCAUAUCAGUGAGGAUUCGUCCGAGAUUGUGUUUUUGCUGGUGUAAAUCAGCAGUUCCCCUGCAUAAGGCU
Test: SPR steady state
Settings: 1x PBS; pH 7.4, 0.005% Tween 20, 5% DMSO
The response must be a number in µM with no trailing unit.

Query (compound): CN1CCN(CCCNc2nnc(-c3nc(C4CC4)no3)c3ccccc23)CC1 [Compound 21] ; field requested: KD
23.0

Quick one: CCN(CC)CCNc1nnc(-c2nnc(C3CC3)o2)c2ccccc12 [Compound 12]
24.2

And the next one, CCN(CC)CCNc1nnc(-c2nc(C3CC3)no2)c2ccccc12 [Compound 15] ?
23.4

Then CN(C)CCNc1nnc(-c2nc(-c3ccc(F)cc3)no2)c2ccccc12 [Compound 22] ?
3.9

Now the compound c1ccc2c(-c3nc(C4CC4)no3)nnc(NCCN3CCOCC3)c2c1 [Compound 19]
34.5

Similarly, CN1CCN(CCNc2nnc(-c3nc(-c4ccc(F)cc4)no3)c3ccccc23)CC1 [Compound 25] ?
13.9

Request: Cc1ccc(-n2ncc3c(NCCCN(C)C)ncnc32)cc1Cl [Compound 1]
50.3

Queued: CN(C)CCNc1nnc(-c2nc(C3CC3)no2)c2ccccc12 [Compound 14]
32.8

Also CCc1nnc(-c2nnc(NCCN(C)C)c3ccccc23)o1 [Compound 3] , if possible.
29.2

What about this compound? CCc1nnc(-c2nnc(NCCCN3CCOCC3)c3ccccc23)o1 [Compound 9]
61.3

And for CCc1nnc(-c2nnc(NCCCN(C)C)c3ccccc23)o1 [Compound 2] ?
30.5

And CN(C)CCCNc1nnc(-c2nc(-c3ccc(F)cc3)no2)c2ccccc12 [Compound 23] ?
11.9

Same question, CCc1nnc(-c2nnc(NCCCN3CCN(C)CC3)c3ccccc23)o1 [Compound 10] this time
51.4

Now the compound c1ccc2c(-c3nc(C4CC4)no3)nnc(NCCCN3CCOCC3)c2c1 [Compound 20]
42.1

====

Give measured pKd for each item. Keep answers brief.
Target: U4/U6 snRNA construct (92 nt)
Assay: SPR binding to U4/U6 snRNA construct (92 nt)
Conditions: 92 nt RNA, steady-state fit; >100 = signal appeared at 100 μM but failed to fit
pKd: −log10 of the molar value.

Given CCc1nnc(-c2nnc(NCCC(C)C)c3ccccc23)o1 [Compound 11] , state its recorded pKd.
< 4.00

Moving on to the next molecule: CCc1nnc(-c2nnc(NCc3cccnc3)c3ccccc23)o1 [Compound 8]
< 4.00

Next up: CCc1nnc(-c2nnc(NCCN(CC)CC)c3ccccc23)o1 [Compound 4]
< 4.00
